# Tested on: RXF 393 renal
# test: NCI-60 one-dose screen, 48 h
# condition.info: 10 µM unless noted
About 83,000 compounds went through this panel and 20% of them were active in at least one assay; those are over-represented in the sample as a whole. Activity calls are given as the source filed them. The calls were made as follows: active = growth percent below 10; inactive = the rest.
Outcomes: active, inactive

[
  {
    "structure.as.smiles": "CCOC(=O)NCCCC(=O)NCCc1ccccc1",
    "assigned.category": "inactive"
  },
  {
    "structure.as.smiles": "C=C1C(=O)O[C@H]2[C@H]1CC/C(COC(=O)C(=O)c1c[nH]c3ccc(Cl)cc13)=C\\CC[C@@]1(C)O[C@@H]21",
    "assigned.category": "active"
  },
  {
    "structure.as.smiles": "N=C(N)c1ccc(-c2ccc(-c3ccccc3)o2)o1",
    "assigned.category": "inactive"
  },
  {
    "structure.as.smiles": "COc1cc(/C=C/C(=O)N2CCN(C(=O)c3cc(OC)c(OC)c(OC)c3)CC2)ccc1OCCCOc1cc2c(cc1OC)C(=O)N1CCC[C@H]1C=N2",
    "assigned.category": "active"
  }
]

----------
# Tested on: A498 renal
# test: NCI-60 one-dose screen, 48 h
# condition.info: 10 µM unless noted
# Description: Growth inhibition of the A498 human tumor cell line is measured as a screen for anti-cancer activity. Cells are grown in 96 well plates and exposed to the test compound for 48 hours. Compounds are tested at a single concentration, which is 10^-5 M for most compounds. The reported endpoint is percent growth (GI% or GIPRCNT), where numbers from 0 - 100% represent growth inhibition, and numbers from -100% - 0 represent cell death. For example, a value of 40 represents 60% growth inhibition. […]
About 83,000 compounds went through this panel and 20% of them were active in at least one assay; those are over-represented in the sample as a whole. Active and inactive are the calls of the source. Rule for the calls: active = growth percent below 10; inactive = the rest.
Labels: class 1 (active), class 0 (inactive)

[
  {
    "molecule": "COc1cc2c(cc1OCCCN1CCN(C(=S)SCCC(C#N)(c3ccccc3)c3ccccc3)CC1)N=C[C@@H]1CCCN1C2=O",
    "assigned.category": "class 1"
  },
  {
    "molecule": "COc1ccc(CNc2ccc3nc(NC(=O)CN4CCCCCC4)sc3c2)cc1",
    "assigned.category": "class 0"
  },
  {
    "molecule": "Fc1cccc(CNc2c3ccccc3nc3ccccc23)c1",
    "assigned.category": "class 1"
  },
  {
    "molecule": "c1cc(OCCN2CCCCC2)ccc1CNc1ccc2nc(CCC3CCCCC3)[nH]c2c1",
    "assigned.category": "class 0"
  },
  {
    "molecule": "CCn1cc(C(=O)N/N=C/c2ccccc2)c(=O)c2cc(F)c(N3CCNC(C)C3)c(F)c21 (stereo not given)",
    "assigned.category": "class 0"
  },
  {
    "molecule": "O=C1C=C(SCCO)C(=O)c2ccccc21",
    "assigned.category": "class 0"
  },
  {
    "molecule": "O=C1CCCCN1c1ccc(C2=NCCCN2)cc1",
    "assigned.category": "class 0"
  },
  {
    "molecule": "N#Cc1c(-c2ccccc2)cc(-c2ccccc2)n(CCCCC(=O)NO)c1=O",
    "assigned.category": "class 0"
  },
  {
    "molecule": "CC/C(=C(\\c1ccc(Cl)cc1)c1ccc(OCCN2CCCCC2)cc1)c1ccc(O)cc1",
    "assigned.category": "class 0"
  },
  {
    "molecule": "CNC(=O)c1cc(Oc2ccc3c(c2)sc2nc(-c4ccc(Cl)c(C(F)(F)F)c4)cn23)ccn1",
    "assigned.category": "class 0"
  },
  {
    "molecule": "COc1ccc(-c2nc(SCC(=O)Nc3nc4ccc(C)cc4s3)[nH]c(=O)c2C#N)cc1OC",
    "assigned.category": "class 0"
  },
  {
    "molecule": "CN(C)/C(N)=N/N=C(\\c1ccccc1)c1ccccn1",
    "assigned.category": "class 0"
  },
  {
    "molecule": "Fc1ccc2[nH]cc(-c3nc(-c4c[nH]c5c(Cl)nccc45)cs3)c2c1",
    "assigned.category": "class 0"
  },
  {
    "molecule": "Cc1c2ncccc2nc2[nH]c3ccc(OCCN(C)C)cc3c12",
    "assigned.category": "class 0"
  },
  {
    "molecule": "O=Nc1ccc(NC(=O)Nc2ccc([N+](=O)[O-])cc2)cc1",
    "assigned.category": "class 0"
  },
  {
    "molecule": "CCN(CC)CCOc1ccc(/C(=C(\\C)Cc2ccc(OC)cc2)c2ccc(OC(=O)NCc3ccccc3)cc2)cc1",
    "assigned.category": "class 0"
  },
  {
    "molecule": "COc1cc(Cc2cc(OC)c(O)c(OC)c2)cc(OC)c1O",
    "assigned.category": "class 0"
  },
  {
    "molecule": "c1ccc2cc(Cn3cc(CSc4nc5ccccc5s4)nn3)ccc2c1",
    "assigned.category": "class 0"
  },
  {
    "molecule": "COc1cc([C@@H](CCO)C[C@H](C)c2ccc3ccccc3c2)cc(OC)c1OC",
    "assigned.category": "class 0"
  },
  {
    "molecule": "O=C1CCCC1[n+]1ccccc1 (stereo not given)",
    "assigned.category": "class 0"
  }
]
